Molecular target: Peroxisome proliferator-activated receptor delta (Mus musculus, UniProt P35396)
Test: Displacement of fluormone Pan-PPAR Green from mouse recombinant GST-tagged PPARbeta/delta LBD after 60 mins by TR-FRET assay
MEASURE NAME: IC50 (µM)

P. CN1CCN(c2ccc(/C=C(\C#N)c3ccccc3Br)cc2)CC1
Q. CN(C)c1ccc(/C=C(\C#N)c2ccccc2Cl)cc1
Would you kindly point out which of P and Q has the smaller IC50 figure? # reply format: chosen label
P
(P: 0.0269 µM, Q: 0.18 µM)

====

Assay: Oral bioavailability in CD1 mouse at 5 mg/kg
Assay type: ADME, organism-based
Conditions: in vivo
MEASURE NAME: bioavailability (%)
Your answer should be a plain number; it is taken to be in %.

Consider the compound CN1CCN(c2ccc(/C=C(\C#N)c3ccccc3Br)cc2)CC1 and give its recorded bioavailability.
72

====

Assay: Clearance in CD1 mouse at 1 mg/kg, iv
Assay type: ADME, organism-based
Design: dose 1 mg/kg, route intravenous
Conditions: in vivo
MEASURE NAME: clearance (mL/min/kg)

a. CN1CCN(c2ccc(/C=C(\C#N)c3ccccc3Br)cc2)CC1
b. CN(C)c1ccc(/C=C(\C#N)c2ccccc2Cl)cc1
For the two items a and b , which reports the higher clearance value? # reply format: chosen label
b

====

Biological target: Peroxisome proliferator-activated receptor delta (Mus musculus) (UniProt P35396)
Sequence (whole entry): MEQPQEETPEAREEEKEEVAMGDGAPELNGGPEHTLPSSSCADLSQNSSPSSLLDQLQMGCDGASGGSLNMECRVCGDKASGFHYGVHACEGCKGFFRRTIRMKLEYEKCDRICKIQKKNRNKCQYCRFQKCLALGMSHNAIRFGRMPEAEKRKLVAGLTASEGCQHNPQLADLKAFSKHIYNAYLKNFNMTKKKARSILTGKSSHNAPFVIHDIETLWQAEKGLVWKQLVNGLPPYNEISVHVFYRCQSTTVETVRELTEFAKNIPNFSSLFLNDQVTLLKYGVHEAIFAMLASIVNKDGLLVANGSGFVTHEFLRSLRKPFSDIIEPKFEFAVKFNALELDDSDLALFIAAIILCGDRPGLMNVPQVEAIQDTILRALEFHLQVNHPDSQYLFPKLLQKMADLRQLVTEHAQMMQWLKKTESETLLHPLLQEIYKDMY
Test: Displacement of fluormone Pan-PPAR Green from mouse recombinant GST-tagged PPARbeta/delta LBD at 1 uM after 60 mins by TR-FRET assay
Calls of active or inactive are those of the source. No cut-off for these calls is given here.
Your reply should match one of these outcome classes. active, inactive

Look up the recorded call for CN(C)c1ccc(/C=C(\C#N)c2ccccc2F)cc1 in this test.
active

---
Look up the recorded call for N#C/C(=C\c1cccc(Br)c1)c1ccccc1 in this test.
active

Look up the recorded call for CN(C)c1ccc(/C=C/c2ccccc2)cc1 in this test.
inactive

Look up the recorded call for CN(C)c1ccc(/C=C/C=C(\C#N)c2ccccc2)cc1 in this test.
inactive

Look up the recorded call for CN(C)c1ccc(/C=C(\C#N)c2ccc([N+](=O)[O-])cc2)cc1 in this test.
active

Look up the recorded call for N#C/C(=C\c1ccc(Cl)cc1)c1ccccc1 in this test.
active

====

Test: Half life in CD1 mouse at 5 mg/kg, po
Assay type: ADME, organism-based
Design: dose 5 mg/kg, route oral
Settings: in vivo
MEASURE NAME: half-life (min)
Your answer should be a plain number; it is taken to be in min.

Consider the compound CN1CCN(c2ccc(/C=C(\C#N)c3ccccc3Br)cc2)CC1 and give its recorded half-life.
634

====

Molecular target: Peroxisome proliferator-activated receptor delta (Mus musculus, UniProt P35396)
Assay: Inverse agonist activity at PPARbeta/delta in mouse C2C12 cells assessed as inhibition of Angptl4 expression after 24 hrs by RT-qPCR analysis
Type: functional, cell-based
pIC50: −log10 of the molar value.
MEASURE NAME: pIC50

P. CN(C)c1ccc(/C=C(\C#N)c2ccccc2Cl)cc1
Q. CN1CCN(c2ccc(/C=C(\C#N)c3ccccc3Br)cc2)CC1
For the two items P and Q , which reports the higher pIC50 value? # reply format: chosen label
Q

====

System: Mus musculus
Assay: AUC (infinity) in CD1 mouse at 5 mg/kg, po
Format: ADME, organism-based, Plasma
Parameters: time infinity, dose 5 mg/kg, route oral
Conditions: in vivo
MEASURE NAME: AUC (ng·h/mL)
Your answer should be a plain number; it is taken to be in ng·h/mL.

Consider the molecule CN1CCN(c2ccc(/C=C(\C#N)c3ccccc3Br)cc2)CC1 and give its recorded AUC.
137
